Reported IC50 by item:
test_system: recombinant human CHIT1 (Homo sapiens (Human))
Sequence (Q13231 22-466): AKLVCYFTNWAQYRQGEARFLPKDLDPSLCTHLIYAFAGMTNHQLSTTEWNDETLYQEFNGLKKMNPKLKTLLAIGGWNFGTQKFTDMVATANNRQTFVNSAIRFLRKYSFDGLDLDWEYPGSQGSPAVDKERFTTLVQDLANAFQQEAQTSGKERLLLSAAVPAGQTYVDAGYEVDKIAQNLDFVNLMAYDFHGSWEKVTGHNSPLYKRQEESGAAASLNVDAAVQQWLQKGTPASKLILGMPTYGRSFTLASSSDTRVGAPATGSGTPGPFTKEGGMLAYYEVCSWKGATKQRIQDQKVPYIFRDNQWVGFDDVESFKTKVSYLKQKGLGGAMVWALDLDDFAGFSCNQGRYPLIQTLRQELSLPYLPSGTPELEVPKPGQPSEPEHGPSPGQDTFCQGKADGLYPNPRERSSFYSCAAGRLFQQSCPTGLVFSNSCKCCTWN
protocol_description: Human CHIT1 activity assay
condition_summary: citrate buffer pH 5.2, 37° C., 60 minutes; 4-methylumbelliferyl β-D-N,N′,N″-triacetylchitotriose substrate; read-out: Activity on hCHIT1, IC50

compound	test_system	IC50
Nc1nnc(N2CCC(N3CCOC[C@@H]3Cc3ccc(Cl)cc3)CC2)[nH]1 [Example 1]	recombinant human CHIT1 (Homo sapiens (Human))	< 100 nM
C[C@H]1CN(C2CCN(c3nnc(N)[nH]3)CC2)[C@@H](Cc2ccc(Cl)cc2)C(C)(C)O1 [Example 53]	recombinant human CHIT1 (Homo sapiens (Human))	10000 to 100000 nM
C[C@H]1CN(C2CCN(c3nnc(N)[nH]3)CC2)[C@@H](Cc2ccc(Cl)cc2)CN1S(C)(=O)=O [Example 37]	recombinant human CHIT1 (Homo sapiens (Human))	10000 to 100000 nM
COC(C)(C)[C@H]1CN(C2CCN(c3nnc(N)[nH]3)CC2)[C@@H](Cc2ccc(Cl)cc2)CO1 [Example 14]	recombinant human CHIT1 (Homo sapiens (Human))	< 100 nM
Nc1nnc(N2CCC(N3CCOC[C@@H]3Cc3ccc(Br)cc3)CC2)[nH]1 [Example 3]	recombinant human CHIT1 (Homo sapiens (Human))	< 100 nM
COC(=O)N1C[C@H](Cc2ccc(Cl)cc2)N(C2CCN(c3nnc(N)[nH]3)CC2)C[C@@H]1C [Example 39]	recombinant human CHIT1 (Homo sapiens (Human))	10000 to 100000 nM
Cc1ccc(S(=O)(=O)N2CCN(C3CCN(c4nnc(N)[nH]4)CC3)[C@@H](Cc3ccc(Cl)cc3)C2)cc1 [Example 35]	recombinant human CHIT1 (Homo sapiens (Human))	10000 to 100000 nM
C[C@H]1CN(C2CCN(c3nnc(N)[nH]3)CC2)[C@@H](Cc2ccc(Cl)cc2)CN1CC(=O)O [Example 41]	recombinant human CHIT1 (Homo sapiens (Human))	100 to 1000 nM
COC(=O)CN1C[C@H](Cc2ccc(Cl)cc2)N(C2CCN(c3nnc(N)[nH]3)CC2)C[C@@H]1C [Example 40]	recombinant human CHIT1 (Homo sapiens (Human))	100 to 1000 nM
CC1(C(=O)O)CC[C@H](Cc2ccc(Cl)cc2)N(C2CCN(c3nnc(N)[nH]3)CC2)C1 (some centres unmarked) [Example 18]	recombinant human CHIT1 (Homo sapiens (Human))	1000 to 10000 nM
CCOC(=O)C1CC[C@H](Cc2ccc(Cl)cc2)N(C2CCN(c3nnc(N)[nH]3)CC2)C1 (some centres unmarked) [Example 16]	recombinant human CHIT1 (Homo sapiens (Human))	< 100 nM
Nc1nnc(N2CCC(N3CCCC[C@@H]3Cc3ccc(Cl)cc3)CC2)[nH]1 [Example 15]	recombinant human CHIT1 (Homo sapiens (Human))	< 100 nM
Nc1nnc(N2CCC(N3C[C@@H]4CCCN4C[C@@H]3Cc3ccc(Cl)cc3)CC2)[nH]1 [Example 49]	recombinant human CHIT1 (Homo sapiens (Human))	1000 to 10000 nM
Nc1nnc(N2CCC(N3CC(C(=O)O)CC[C@@H]3Cc3ccc(Cl)cc3)CC2)[nH]1 (some centres unmarked) [Example 17]	recombinant human CHIT1 (Homo sapiens (Human))	100 to 1000 nM

Source of measurements: patent US10208020B2
